experiment: HILIC, Waters Atlantis Premier BEH Z-HILIC, 100 × 2.1 mm, 1.7 µm, 40 °C, 0.17 mL/min, estimated dead time 1.3 min; A: water + 20 mM ammonium carbonate + 5 µM medronic acid; B: 10% water + 90% acetonitrile + 2 mM ammonium carbonate + 0.5 µM medronic acid; gradient (min/%B) 0/100 18/60 18.1/20 21.5/20 22/100 23.5/100 25.5/100; conditions: stereoisomer not certain
QUANTITY_KIND: LC retention time (min)

CC(C)(COP(=O)(O)OP(=O)(O)OCC1OC(n2cnc3c(N)ncnc32)C(O)C1OP(=O)(O)O)C(O)C(=O)NCCC(=O)NCCS (centres undefined) ... 11.9
O=C(O)CCC(=O)C(=O)O ... 9.07
Nc1ncnc2c1ncn2C1OC(COP(=O)(O)O)C(O)C1O (centres undefined) ... 8.86
CC(=O)SCCNC(=O)CCNC(=O)C(O)C(C)(C)COP(=O)(O)OP(=O)(O)OCC1OC(n2cnc3c(N)ncnc32)C(O)C1OP(=O)(O)O (centres undefined) ... 10.5

Value source: the RepoRT retention time repository
